Target: Cholinesterase (Equus caballus, UniProt P81908)
Sequence (P81908 whole entry): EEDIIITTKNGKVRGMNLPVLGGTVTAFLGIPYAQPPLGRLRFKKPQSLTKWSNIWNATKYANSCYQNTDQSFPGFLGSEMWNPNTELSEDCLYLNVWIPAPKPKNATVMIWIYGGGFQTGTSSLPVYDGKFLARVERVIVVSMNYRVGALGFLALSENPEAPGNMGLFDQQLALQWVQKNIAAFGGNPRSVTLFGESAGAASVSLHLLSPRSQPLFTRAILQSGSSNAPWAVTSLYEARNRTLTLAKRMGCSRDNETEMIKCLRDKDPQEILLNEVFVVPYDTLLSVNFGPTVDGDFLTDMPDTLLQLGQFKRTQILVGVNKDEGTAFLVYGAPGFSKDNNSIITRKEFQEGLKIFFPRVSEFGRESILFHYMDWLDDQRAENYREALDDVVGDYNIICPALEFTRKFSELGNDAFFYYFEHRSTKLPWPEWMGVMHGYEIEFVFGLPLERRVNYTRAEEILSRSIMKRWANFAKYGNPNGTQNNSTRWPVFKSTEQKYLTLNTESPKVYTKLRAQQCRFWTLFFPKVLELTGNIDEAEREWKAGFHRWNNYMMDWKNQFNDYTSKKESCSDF
Assay: Inhibition of equine serum BuChE using acetylthiocholine iodide as substrate after 8 mins by Ellman's method
quantity kind: IC50 (nM)
State the answer as a number, implicitly in nM.

Prompt: State, in one line, measured IC50 of `O=C(NCCCCCCNc1c2c(nc3ccccc13)CCCC2)c1cnc(Cl)c(Cl)c1`
Completion: 12.9

Prompt: Quickly give me recorded IC50 for `O=C(NCCNc1c2c(nc3ccccc13)CCCC2)c1cnc(Cl)c(Cl)c1`
Completion: 726

Prompt: For the compound `Cl.O=C(NCCCNc1c2c(nc3ccccc13)CCCC2)c1cnc(Cl)c(Cl)c1` , give its measured IC50 value.
Completion: 160

Prompt: Using known records, supply IC50 for `O=C(NCCCCCNc1c2c(nc3ccccc13)CCCC2)c1cnc(Cl)c(Cl)c1`
Completion: 13.5

Prompt: // fetch IC50 given entry `O=C(NCCCCCCCCNc1c2c(nc3ccccc13)CCCC2)c1cnc(Cl)c(Cl)c1`
Completion: 10.7

Prompt: Identify IC50 associated with the compound `O=C(NCCCCCCCNc1c2c(nc3ccccc13)CCCC2)c1cnc(Cl)c(Cl)c1`
Completion: 11.4

Prompt: // Input: `O=C(NCCCCNc1c2c(nc3ccccc13)CCCC2)c1cnc(Cl)c(Cl)c1` . Output its IC50 only.
Completion: 41.4

Prompt: Supply measured IC50 of `O=C(NCCCCCCCCCNc1c2c(nc3ccccc13)CCCC2)c1cnc(Cl)c(Cl)c1` in your reply.
Completion: 3.33
